Source of measurements: the RNAGym collection of RNA variant scans (doi:10.1073/pnas.2313332121)

B1: TPR 5TU (parent)
chain: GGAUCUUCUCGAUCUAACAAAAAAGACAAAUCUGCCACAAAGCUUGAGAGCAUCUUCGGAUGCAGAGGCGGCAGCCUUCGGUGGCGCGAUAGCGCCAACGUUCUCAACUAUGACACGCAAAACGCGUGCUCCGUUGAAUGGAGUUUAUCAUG

Variants of: B1
Experiment: polymerase ribozyme fitness, log enrichment relative to wild type (log ratio); higher = more active; in vitro selection for triplet polymerase activity
This sample holds only a part of the variants without activity.
Kindly supply the reported polymerase ribozyme fitness (log ratio) values for the records listed here.
I'd appreciate a reply containing only the number, no unit.

Ask: Report polymerase ribozyme fitness (log ratio) for A41C G94C
Result: -1.8

Ask: Report polymerase ribozyme fitness (log ratio) for A37C C114U
Result: -3.07

Ask: Report polymerase ribozyme fitness (log ratio) for U31A C57U C87U A89G G117A
Result: -3.86

Ask: Report polymerase ribozyme fitness (log ratio) for G50U G86A C93U C96U
Result: -0.529

Ask: Report polymerase ribozyme fitness (log ratio) for U53A C72U A97G U134A
Result: -3.33

Ask: Report polymerase ribozyme fitness (log ratio) for G59A A119U
Result: -0.778

Ask: Report polymerase ribozyme fitness (log ratio) for U7C C35U
Result: -2.29

Ask: Report polymerase ribozyme fitness (log ratio) for U53A C96U
Result: -1.85

Ask: Report polymerase ribozyme fitness (log ratio) for A47U A89G C116U G133U A138C
Result: -4.12

Ask: Report polymerase ribozyme fitness (log ratio) for A110G A122G
Result: -2.84

Ask: Report polymerase ribozyme fitness (log ratio) for A52U G92U C105A
Result: -3.93

Ask: Report polymerase ribozyme fitness (log ratio) for C54U C96A C105U
Result: 0.0167

Ask: Report polymerase ribozyme fitness (log ratio) for C14U C76A C85U
Result: -2.67

Ask: Report polymerase ribozyme fitness (log ratio) for G58C G84U G136U
Result: -3.72

Ask: Report polymerase ribozyme fitness (log ratio) for U7C C18U U31A G81A G84U
Result: -3.99

Ask: Report polymerase ribozyme fitness (log ratio) for G42A G59A
Result: -4.11

Ask: Report polymerase ribozyme fitness (log ratio) for A3G U56C C87A G92C
Result: -2.12

Ask: Report polymerase ribozyme fitness (log ratio) for U31A A89C
Result: -0.512

Ask: Report polymerase ribozyme fitness (log ratio) for U13G C14G U31G
Result: -1.43

Ask: Report polymerase ribozyme fitness (log ratio) for U31A C57A C87U A97C G117A A119U
Result: 1.02

Ask: Report polymerase ribozyme fitness (log ratio) for G94A G133U
Result: -3.19

Ask: Report polymerase ribozyme fitness (log ratio) for U4G G25A U45G C87A C99A C103U C105G U139G G143A
Result: -4.11

Ask: Report polymerase ribozyme fitness (log ratio) for A60U A106G
Result: -0.0172

Ask: Report polymerase ribozyme fitness (log ratio) for U56G A150C
Result: -3.51

Ask: Report polymerase ribozyme fitness (log ratio) for G92A C118G
Result: -3.69

Ask: Report polymerase ribozyme fitness (log ratio) for C54U C87U C99U U135C
Result: -3.26

Ask: Report polymerase ribozyme fitness (log ratio) for C63U C75U U82A
Result: 0.455

Ask: Report polymerase ribozyme fitness (log ratio) for C43U C57U
Result: -3.79

Ask: Report polymerase ribozyme fitness (log ratio) for A66C
Result: -4.16

Ask: Report polymerase ribozyme fitness (log ratio) for U82G G92U C131A
Result: -3.24

Ask: Report polymerase ribozyme fitness (log ratio) for C75U C93U
Result: -0.656

Ask: Report polymerase ribozyme fitness (log ratio) for A20U C96U A98G
Result: -1.71

Ask: Report polymerase ribozyme fitness (log ratio) for A17U C85A C96G
Result: -2.34

Ask: Report polymerase ribozyme fitness (log ratio) for A28U U61G C87G
Result: -4.14

Ask: Report polymerase ribozyme fitness (log ratio) for A21G U151C
Result: -3.8

Ask: Report polymerase ribozyme fitness (log ratio) for A3U C87U
Result: -0.956

Ask: Report polymerase ribozyme fitness (log ratio) for C57U U127C
Result: -2.13

Ask: Report polymerase ribozyme fitness (log ratio) for G25U U61A
Result: -3.25

Ask: Report polymerase ribozyme fitness (log ratio) for C75U A121G
Result: -0.596

Ask: Report polymerase ribozyme fitness (log ratio) for C14G U82C
Result: -3.65

Ask: Report polymerase ribozyme fitness (log ratio) for C93U U144G
Result: -0.253

Ask: Report polymerase ribozyme fitness (log ratio) for U61C C96A
Result: -3.31
